# system-tested: T1, hu-CD200R1-iso4-Ref ECD (human)
# T1 chain: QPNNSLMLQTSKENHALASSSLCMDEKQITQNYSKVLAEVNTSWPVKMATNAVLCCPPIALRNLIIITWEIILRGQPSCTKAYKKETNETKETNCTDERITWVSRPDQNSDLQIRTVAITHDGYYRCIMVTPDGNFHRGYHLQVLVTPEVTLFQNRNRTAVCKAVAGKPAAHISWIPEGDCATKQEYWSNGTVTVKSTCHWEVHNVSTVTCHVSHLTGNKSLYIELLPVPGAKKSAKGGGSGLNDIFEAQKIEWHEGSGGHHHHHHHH
# procedure-details: SPR Biacore 8K 37C; antibody on Protein A chip, CD200R1 analyte;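 also: sensorgrams corrected by subtracting reference and buffer signals, then analysed with Biacore 8K Evaluation Software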
# kon per entry

binder | unit-of-measurement | kon
h10F6.V4 (antibody, IgG1, V domains shown, IgG1 variant of h10F6) VH: EVQLQESGPGLVKPSETLSLTCTVSGFSLTNYWVSWVRQPPGKGLEWLGTMWAGGGTNYNSVFKSRLTISKDNSKNQVSLKLSSVTAADTAVYYCARERPLTGPMDYWGQGTLVTVSS VL: DIVLTQSPDSLAVSLGERATINCRASESVDYSGNSFMHWFQQKPGQPPKLLIYRASNLESGIPDRFSGSGSRTDFTLTISSLQAEDVAVYYCHQSNWDPPTFGGGTKVEIKR | M⁻¹ s⁻¹ | 377000
h10F6.V3 (antibody, IgG1, V domains shown, IgG1 variant of h10F6) VH: EVQLQESGPGLVKPSETLSLTCTVSGFSLTNYRVSWVRQPPGKGLEWLGVMYAGGGTNYNSVFKSRLTISKDNSKNQVSLKLSSVTAADTAVYYCARERPLTGVMDNWGQGTLVTVSS VL: DIVLTQSPDSLAVSLGERATINCRASESVDYSGNSFMHWFQQKPGQPPKLLIYRASNLESGIPDRFSGSGSRTDFTLTISSLQAEDVAVYYCHQSNEDPPTFGGGTKVEIKR | M⁻¹ s⁻¹ | 1.88e+06
h10F6.V2 (antibody, IgG1, V domains shown, IgG1 variant of h10F6) VH: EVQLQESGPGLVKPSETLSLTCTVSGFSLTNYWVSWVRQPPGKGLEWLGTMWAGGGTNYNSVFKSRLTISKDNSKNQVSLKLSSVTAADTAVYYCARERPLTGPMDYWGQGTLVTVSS VL: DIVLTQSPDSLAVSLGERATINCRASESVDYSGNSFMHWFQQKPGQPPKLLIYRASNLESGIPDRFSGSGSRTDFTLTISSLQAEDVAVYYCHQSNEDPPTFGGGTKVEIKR | M⁻¹ s⁻¹ | 607000
h10F6.V1 (antibody, IgG1, V domains shown, differs by 3 residues in the heavy chain CDRs and 1 in the light chain CDRs; also called surrogate antibody) VH: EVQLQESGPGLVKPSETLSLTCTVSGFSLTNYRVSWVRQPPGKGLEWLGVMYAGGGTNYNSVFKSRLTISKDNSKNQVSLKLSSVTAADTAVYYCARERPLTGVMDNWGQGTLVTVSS VL: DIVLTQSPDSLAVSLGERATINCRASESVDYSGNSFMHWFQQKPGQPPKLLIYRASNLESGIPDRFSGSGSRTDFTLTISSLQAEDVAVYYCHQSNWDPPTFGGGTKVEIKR | M⁻¹ s⁻¹ | 1.35e+06
